- Test system: influenza A/WSN/1933 (H1N1)
- Measurement Protocol: CPE assay at different multiplicities of infection (Example 94)
- Format: cell-based, influenza A virus
- Experimental Conditions: Influenza A virus, MDCK, MOI 0.001; read-out: EC50 H1N1 A/WSN/1933 (CPE in MDCK cells)
Test Readout: pEC50
Scale explanation: pEC50 corresponds to minus log10 of a concentration expressed in moles per litre.

Query :: Quick one: pEC50 for O=C1c2c(O)c(=O)ccn2N([C@@H]2c3ccccc3SCc3c2ccc(F)c3F)[C@@H]2COCCN12 ?
Result :: 8.30

---

- System: influenza A/WSN/1933 (H1N1)
- Measurement Protocol: CPE assay at different multiplicities of infection (Example 94)
- Type: cell-based, influenza A virus
- Experimental Conditions: MOI 1; read-out: EC50 H1N1 A/WSN/1933 (CPE in MDCK cells)
pEC50: −log10 of the molar value.
Test Readout: pEC50

Molecule	Test Readout	Measured Result
CC(=O)N[C@H]1[C@H]([C@H](O)[C@H](O)CO)OC(C(=O)O)=C[C@@H]1N=C(N)N [Zanamivir, zanamivir]	pEC50	< 5.00

// moving on: another record for pEC50
Query :: Can you share its pEC50? I mean this molecule: CCOC(=O)C1=C[C@@H](OC(CC)CC)[C@H](NC(C)=O)[C@@H](N)C1 [Oseltamivir, oseltamivir]
Result :: < 5.00
